System: HCT-116
Protocol: Cytotoxicity against human HCT-116 cells assessed as reduction in cell viability after 48 hrs by MTT assay
Assay type: functional, cell-based
Measurement conditions: HCT-116, 48 h
Residues, ends and D or L forms follow the SMILES beside them. *: point of attachment. X1 = CC(=O)O[C@@]12CO[C@@H]1C[C@H](O)[C@@]1(C)C(=O)[C@H](O)C3=C(C)[C@@H](OC(=O)[C@H](OC(=O)OCc4ccc(N*)cc4)[C@@H](NC(=O)OC(C)(C)C)c4ccccc4)C[C@@](O)([C@@H](OC(=O)c4ccccc4)[C@H]21)C3(C)C
I'd be grateful if you could share measured pIC50 for these entries.
# log scale: pIC50 equals minus log10 of the concentration in mol/L

What does the data say about its pIC50? Entry: CC[C@H](C)[C@H](NC(=O)CNC(=O)[C@H](CCC(N)=O)NC(=O)[C@@H]1CCCN1C(=O)CNC(C)=O)C(=O)N[C@@H](C)C(=O)N[C@@H](CCSC)C(=O)N[C@@H](CCC(N)=O)C(=O)N[C@@H](CC(C)C)C(=O)Nc1ccc(COC(=O)O[C@@H](C(=O)O[C@H]2C[C@@]3(O)[C@@H](OC(=O)c4ccccc4)[C@@H]4[C@]5(OC(C)=O)CO[C@@H]5C[C@H](O)[C@@]4(C)C(=O)[C@H](O)C(=C2C)C3(C)C)[C@@H](NC(=O)OC(C)(C)C)c2ccccc2)cc1 (Ac-GPQGIAMQL-X1)
8.04

GET /values?readout=pIC50&item= CC[C@H](C)[C@H](NC(=O)[C@H](C)NC(=O)[C@H](CCC(N)=O)NC(=O)[C@@H]1CCCN1C(=O)CNC(C)=O)C(=O)N[C@@H](C)C(=O)NCC(=O)N[C@@H](CCC(N)=O)C(=O)N[C@@H](CC(C)C)C(=O)Nc1ccc(COC(=O)O[C@@H](C(=O)O[C@H]2C[C@@]3(O)[C@@H](OC(=O)c4ccccc4)[C@@H]4[C@]5(OC(C)=O)CO[C@@H]5C[C@H](O)[C@@]4(C)C(=O)[C@H](O)C(=C2C)C3(C)C)[C@@H](NC(=O)OC(C)(C)C)c2ccccc2)cc1 (Ac-GPQAIAGQL-X1)
7.95

Which pIC50 reading was recorded for the molecule CC(=O)O[C@@]12CO[C@@H]1C[C@H](O)[C@@]1(C)C(=O)[C@H](O)C3=C(C)[C@@H](OC(=O)[C@H](O)[C@@H](NC(=O)OC(C)(C)C)c4ccccc4)C[C@@](O)([C@@H](OC(=O)c4ccccc4)[C@H]21)C3(C)C [DOCETAXEL ANHYDROUS] ?
8.46

This collection of values is drawn from ChEMBL document CHEMBL4680238.
